Consider the following compounds and their measured TGI readings.
System: UACC-62 melanoma
Assay overview: NCI tumour cell line growth inhibition, 48 h
Give the value in µM but do not write µM after it.

Worked examples follow.
**Q:** Any idea what its TGI is? The compound is `O=C1NC(=O)/C(=C/C=C/c2ccccc2)S1`
**A:** 27

**Q:** Any idea what its TGI is? The compound is O=C1C2c3[nH]c4ccccc4c3[C@@H]3CCCCCCCCCCC3C2C(=O)N1c1ccccc1 (some centres not stated)
**A:** 59.2

**Q:** Any idea what its TGI is? The compound is `O=C1/C(=C/c2ccccc2)CCc2ccc(Cl)nc21`
**A:** 22.8

**Q:** Any idea what its TGI is? The compound is `Cc1cc(C)c(S(=O)(=O)N(CCCCN)OCCCN)c(C)c1`
**A:** 30.7

**Q:** Any idea what its TGI is? The compound is `O=C(c1ccccc1Nc1ccnc(C(F)(F)F)c1)N1CCN(c2cccc(Cl)c2)CC1`
**A:** 25.7

# next compound below
**Q:** Any idea what its TGI is? The compound is `Nc1ncnc2c1c(C(F)(F)F)cn2[C@@H]1O[C@H](CO)[C@@H](O)[C@H]1O`
**A:** 1.78
